We begin with a simple list: items and their reported composite z-score.
molecular target: Calmodulin-1 (Homo sapiens) (UniProt P0DP23); test: calcium-bound CALM1 binders on microarrays, profiling panel, artefact control for SMM control-protein annotation, biochemical, small-molecule microarray, Cy5-labelled CALM1, plus calcium (AID 1112); conditions: Cy5-CALM1 binding fluorescence, higher = more signal;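 note: score merges spot fluorescence with signal to noise from triplicate slides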
The response must contain the number and no unit.

Observed composite z-score on Calmodulin-1 (Homo sapiens) (UniProt P0DP23) for "COC(=O)[C@@]1(Cc2ccc(F)cc2)[C@H]2c3cc(C(=O)N4CCCC4)n(C)c3C[C@H]2CN1C(=O)c1ccccc1" , please.
1.11

Form: Entry = "COCCOC(=O)N1C(=O)[C@@]2(c3cc(C#CCNC(N)=O)ccc31)[C@H](c1ccc(OCCO)cc1)N1[C@H](c3ccccc3)[C@H](c3ccccc3)OC(=O)[C@H]1[C@@H]2C(N)=O" | System = Calmodulin-1 (Homo sapiens) (UniProt P0DP23) | composite z-score = ____
0.585

Record lookup: for Calmodulin-1 (Homo sapiens) (UniProt P0DP23), what composite z-score belongs to "COC(=O)[C@@]1(Cc2ccccc2CN=[N+]=[N-])N=C(c2ccc(OCCCO)cc2)O[C@H]1c1ccccc1" ?
0.161

Item "CCOC(=O)C1=C[C@@H](C(C)(C)C)N(S(=O)(=O)c2ccc(C)cc2)[C@H]1c1cccc(Cl)c1" with Calmodulin-1 (Homo sapiens) (UniProt P0DP23) - composite z-score?
0.321

Form entry - test system: Calmodulin-1 (Homo sapiens) (UniProt P0DP23); read-out: composite z-score; compound: "NCCCCCNC(=O)[C@H]1C[C@H]2C(=O)N[C@@H](Cc3ccccc3)C(=O)N2[C@H]1c1ccc(O)cc1"
1.14

Record CC(C)C(CO)N1C(=O)[C@@H]2[C@H]3C(=O)OCC=C[C@H]3OC23C=CCN(C(C)(C)C)C(=O)[C@@H]13 (some centres not stated) : what is its composite z-score with Calmodulin-1 (Homo sapiens) (UniProt P0DP23)?
-1.43

For the record "CCOC(=O)C1=C[C@@H](c2ccccc2)N(S(=O)(=O)c2ccc(C)cc2)[C@H]1c1ccccc1" , what value of composite z-score is listed for Calmodulin-1 (Homo sapiens) (UniProt P0DP23)?
0.209
